# protocolText: LogP by HPLC on reversed phase columns (EEC directive 79/831 Annex V.A8)
# Format: physicochemical
# settings: LogP
For each entry below, report its chromatographic logP value.
Answers are plain numbers.

Known results for compounds:
{"columns": ["compound", "propertyName", "testValue"],
 "data": [
  ["OC(Cn1cncn1)(c1ccc(F)cc1F)C1(Oc2c(F)cc(F)cc2F)CC1 (stereo not shown)", "chromatographic logP", 3.11],
  ["CC(=O)OC(Cn1cncn1)(c1ccc(F)cc1F)C1(Oc2c(F)cc(F)cc2F)CC1 (stereo not shown)", "chromatographic logP", 3.32]
]}

Provide reported chromatographic logP for each item, in the same order as listed.
1. OC(Cn1cncn1)(c1ccc(F)cc1F)C1(Oc2c(F)cc(Cl)cc2F)CC1 (racemic)
2. OC(Cn1cncn1)(c1ccc(F)cc1F)C1(Oc2c(F)cc(Br)cc2F)CC1 (racemic)

Resp:
1. 3.57
2. 3.7
